Examples of compounds with documented melting point follow.
OBSERVATION TYPE: melting point

>>> assay_value("CNC1=NN(C(=O)c2ccccc2)C(C)(C)S1")
"130 to 136 °C"
>>> assay_value("Cc1ccc2ccc(C(=O)NCc3ccc(Cl)cc3)c(O)c2n1")
"95 to 98 °C"
>>> assay_value("COc1ccc(N2Cc3cnc(Nc4ccc(F)cc4)nc3N([C@@H](C)CO)C2=O)c(F)c1")
"173 to 177 °C"
>>> assay_value("Cc1oc(-c2ccccc2)nc1CCC(O)c1ccc(CCC2OC(=O)NC2=O)cc1 (stereo not given)")
"145 to 146 °C"
>>> assay_value("CCCCNC(=O)CC(F)=C(F)F")
"34 to 36 °C"
>>> assay_value("c1cc2cc(Nc3ncnc4cnc(N5CCOCC5)nc34)ccc2cn1")
"208 to 210 °C"
>>> assay_value("CCOC(=O)CC(c1cccnc1)N1CCN(CCCOc2ccc(C#N)cc2)C(=O)C1=O (stereo not given)")
"110 to 112 °C"
>>> assay_value("Nc1ccc(Br)cc1CC1NC(=O)NC1=O (stereo not given)")
"> 310 °C"
>>> assay_value("COCCc1nc2c(N)nc3ccccc3c2n1CC(C)(C)CNC(=O)Nc1ccccc1")
"125 to 130 °C"
>>> assay_value("CCc1cnn(CC(=O)O)c1OCCCc1cn(-c2ccc(C(F)(F)F)cn2)nc1C(C)C")
"111 to 112 °C"
